test system: CD2F1 mice, L1210 leukemia ip, survival T/C; assay: NCI In Vivo Anticancer Drug Screen. Data for tumor model L1210 Leukemia (intraperitoneal) in CD2F1 (CDF1) mice; conditions: endpoint: mean survival time; dose: 200.0 mg/kg/injection; schedule: Q04DX002 (ip); vehicle: Klucel (hydroxypropylcellulose) (HPC); higher = longer survival
Toxic doses and inconclusive results are not listed.
Recorded endpoint: T/C

Exam item: Please list T/C recorded for the molecule `CC(=O)Nc1ncc(CN2CCCCC2)s1`
Marked response: 103 % of control

Exam item: Retrieve T/C measured for `Sc1c(Cl)c(Cl)c(Cl)c(Cl)c1Cl` and print it.
Marked response: 90 % of control

Exam item: // fetch T/C given entry `O=Cc1[nH]c(=S)[nH]c(=O)c1CCCc1ccccc1`
Marked response: 94 % of control

Exam item: Identify T/C associated with the molecule `CN1CCc2[nH]c3ccccc3c2C1`
Marked response: 103 % of control

Exam item: Identify the reported T/C for the following entry. `O=C1c2ccccc2C(=O)c2c1cccc2N1CCOCC1`
Marked response: 96 % of control
